Assay: Metabolic stability in mouse liver microsomes assessed as parent compound remaining after 10 mins
Assay type: ADME, microsome
Settings: liver microsomes, read-out: Stability
Measured quantity: remaining at 10 min (%)
Give bare numbers, in %.

Cc1ccccc1C1(CC(=O)N2CC(O)C2)C2CC3CC1CC(C2)C3O (racemic) :: 77

// each listed compound needs a value for remaining at 10 min
1. N#Cc1ccc(C2(CC(=O)N3CC(O)C3)C3CC4CC2CC(C3)C4O)cc1 (racemic)
2. O=C(CC1(c2ccc(-c3ccc(F)cc3)cc2)C2CC3CC1CC(C2)C3O)N1CC(O)C1 (racemic)
3. N#CC12CC3CC(C1)C(CC(=O)N1CC(O)C1)(c1ccc(F)cc1)C(C3)C2 (stereo not given)
4. O=C(CC1(c2cccc(Cl)c2)C2CC3CC1CC(C2)C3O)N1CC(O)C1 (racemic)

1. 87
2. 10
3. 42
4. 66

Could you report remaining at 10 min for every entry in the following list?
1. O=C(CC1(c2ccc(Cl)cc2)C2CC3CC1CC(C2)C3O)N1CC(O)C1 (racemic)
2. O=C(CC1(c2ccncc2)C2CC3CC1CC(C2)C3O)N1CC(O)C1 (racemic)
3. CS(=O)(=O)c1ccc(C2(CC(=O)N3CC(O)C3)C3CC4CC2CC(C3)C4O)cc1 (racemic)

73
94
100

====

Biological target: Cytochrome P450 2E1 (Homo sapiens, UniProt P05181)
Sequence (P05181 whole entry): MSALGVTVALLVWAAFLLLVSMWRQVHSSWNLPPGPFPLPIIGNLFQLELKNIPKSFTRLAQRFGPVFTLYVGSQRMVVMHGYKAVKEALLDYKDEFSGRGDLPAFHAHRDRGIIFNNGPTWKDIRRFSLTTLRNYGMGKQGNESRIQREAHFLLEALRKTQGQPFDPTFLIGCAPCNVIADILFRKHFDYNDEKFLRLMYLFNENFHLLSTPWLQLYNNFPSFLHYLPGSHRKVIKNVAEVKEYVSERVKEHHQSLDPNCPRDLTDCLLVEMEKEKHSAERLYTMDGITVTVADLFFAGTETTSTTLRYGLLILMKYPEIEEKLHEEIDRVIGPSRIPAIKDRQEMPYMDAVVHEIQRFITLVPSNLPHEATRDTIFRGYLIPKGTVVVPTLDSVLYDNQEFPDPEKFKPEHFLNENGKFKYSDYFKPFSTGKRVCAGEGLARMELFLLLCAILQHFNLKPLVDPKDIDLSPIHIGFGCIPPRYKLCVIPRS
pIC50: −log10 of the molar value.
Measured quantity: pIC50

Looking for the measured pIC50 of O=C(CC1(c2ccccc2)C2CC3CC1CC(C2)C3O)N1CC(O)C1 (stereo in doubt; form 2) , can you help?
< 4.40

====

Test: in vivo
Settings: mouse, brain / plasma, iv, 5 mg/kg
Measured quantity: Kp

Report Kp for O=C(CC1(c2ccccc2)C2CC3CC1CC(C2)C3O)N1CC(O)C1 (stereo in doubt; form 2) please.
< 0.1

====

Assay: Volume of distribution at steady state in dog at 1 mg/kg, iv
Assay type: ADME, organism-based, Canis lupus familiaris
Settings: in vivo, read-out: Vdss
Measured quantity: Vd (L/kg)
One number for each entry, in L/kg.

Param item = O=C(CC1(c2ccccc2)C2CC3CC1CC(C2)C3O)N1CC(O)C1 (stereo in doubt; form 2) ; retrieve measured Vd.
3

====

Experiment: Metabolic stability in rat liver microsomes assessed as UGT-mediated glucuronidation of compound by measuring half life in presence of UDPGA
Format: ADME
Measured quantity: half-life (min)
Numbers only, in min.

Which measured half-life value corresponds to O=C(CC1(c2ccccc2)C2CC3CC1CC(C2)C3O)N1CC(O)C1 (stereo in doubt; form 2) ?
47

====

Target: 11-beta-hydroxysteroid dehydrogenase type 2 (Rattus norvegicus)
Sequence (P50233 whole entry): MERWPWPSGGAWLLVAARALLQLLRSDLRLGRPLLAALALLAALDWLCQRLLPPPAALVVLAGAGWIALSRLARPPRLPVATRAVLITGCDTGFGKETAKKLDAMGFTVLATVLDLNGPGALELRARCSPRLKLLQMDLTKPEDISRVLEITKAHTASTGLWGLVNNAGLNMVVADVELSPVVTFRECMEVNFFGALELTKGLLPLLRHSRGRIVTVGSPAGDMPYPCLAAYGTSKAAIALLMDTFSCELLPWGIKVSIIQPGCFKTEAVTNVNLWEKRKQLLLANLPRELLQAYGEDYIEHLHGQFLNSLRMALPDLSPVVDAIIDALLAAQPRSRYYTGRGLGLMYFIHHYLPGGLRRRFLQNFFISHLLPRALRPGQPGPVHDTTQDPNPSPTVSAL
Test: Inhibition of rat 11beta-HSD2
Measured quantity: IC50 (µM)
One number for each entry, in µM.

Endpoint output: IC50 of O=C(CC1(c2ccccc2)C2CC3CC1CC(C2)C3O)N1CC(O)C1 (stereo in doubt; form 2) . Value?
3.5

====

Experiment: Total plasma clearance in cynomolgus monkey at 1 mg/kg, iv
Format: ADME, organism-based, Macaca fascicularis
Measured quantity: clearance (mL/min/kg)
One number for each entry, in mL/min/kg.

# lookup: clearance of O=C(CC1(c2ccccc2)C2CC3CC1CC(C2)C3O)N1CC(O)C1 (stereo in doubt; form 2)
21.2

====

Answer each item with its documented remaining at 10 min.
Assay: Metabolic stability in human liver microsomes assessed as parent compound remaining after 10 mins
Assay type: ADME, microsome
Settings: liver microsomes, read-out: Stability

Below, each entry is followed by its recorded remaining at 10 min result.
O=C(CC1(Cc2ccccc2)C2CC3CC1CC(C2)C3O)N1CC(O)C1 (racemic) :: 63%
O=C(CC1(c2ccc(Cl)cc2)C2CC3CC1CC(C2)C3O)N1CC(O)C1 (racemic) :: 81%
Cc1ccc(C2(CC(=O)N3CC(O)C3)C3CC4CC2CC(C3)C4O)cc1 (racemic) :: 75%

Which remaining at 10 min is reported for this compound? COC12CC3CC(C1)C(CC(=O)N1CC(O)C1)(c1ccc(F)cc1)C(C3)C2 (centres undefined)
27 to 72%
